Tested target: ScSla1-D3
Experiment notes: SPOT peptide array binding signal intensity (averaged, normalized) (arbitrary units (background-subtracted, floor 0; scale differs between SH3 domains)); higher = stronger binding of the SH3 domain to the peptide
Each entry gets not met if its SPOT peptide array binding signal intensity stays under 60, and met if its SPOT peptide array binding signal intensity is 60 or above.

INSERT INTO measurements (binder, group_label) VALUES
  ('LLIRWLILMPLVGSR', 'met'),
  ('VAPPPLPNRQLPNLD', 'not met'),
  ('HRRRRVFSIPSLKSI', 'not met'),
  ('PSRRAPLQLPQLVNK', 'not met'),
  ('KRNRLKILLPFLEQS', 'not met'),
  ('DGNEEKPLLPTRPNK', 'not met');
